target: Acetylcholinesterase (Homo sapiens); assay: Acetylcholinesterase (AChE) small molecule antagonists: enzyme-based qHTS assay with human liver microsomes (AID 1347399); conditions: qHTS inhibition; series mostly up to 115 µM; further: nearly all actives have a fitted effect of over 60% in size
Calls of active or inactive are those of the source. The call rests on the fitted dose curve.
readoutType: outcome

>>> print(df.to_string())
                                   compound  readouttype    result
0                 Cc1nnc(-c2ccccc2)c(=O)n1N      outcome  inactive
1  CC(Oc1cc(Cl)c(Cl)cc1Cl)C(=O)O (stereo unspecified)      outcome  inactive
2                 N#CC(C#N)=Cc1ccc(O)c(O)c1      outcome  inactive
3  Cc1cnc(C2=NC(C)(C(C)C)C(=O)N2)c(C(=O)O)c1 (stereo unspecified)      outcome  inactive
4  O=C(O)C(F)(F)C(F)(F)C(F)(F)C(F)(F)C(F)(F)F      outcome  inactive
5   CCCN(CCOc1c(Cl)cc(Cl)cc1Cl)C(=O)n1ccnc1      outcome  inactive

* * *

test: A CellTox Green Cytotoxicity Assay to monitor cytotoxicity in HepG2 cells - 40 hour (AID 1224879); settings: CellTox Green fluorescence; series mostly up to 76.8 µM; further: nearly all actives have a fitted effect of over 40% in size
Results filed as inconclusive are left out. Calls of active or inactive are those of the source. The call rests on the fitted dose curve; in most records, active means well fitted activation curve with a large enough effect in the repeat runs; inconclusive means weak or mixed curves; inactive means flat fitted curve, though single readings scatter.
Outcome codes: active, inactive

>>> print(df.to_string())
                                    compound  labelclass
 0  O=P(OCC(Br)CBr)(OCC(Br)CBr)OCC(Br)CBr (configuration not stated)    inactive
 1               CN[C@@H](C)[C@H](O)c1ccccc1    inactive
 2            CCOP(=S)(OCC)SCSc1cc(Cl)ccc1Cl    inactive
 3  CCOP(=S)(OCC)Oc1ccc(S(C)=O)cc1 (configuration not stated)    inactive
 4  CC[N+]1(CCOC(=O)C(O)(c2ccccc2)c2ccccc2)CCCCC1    inactive
 5      CC(C)(C)OOC(C)(C)CCC(C)(C)OOC(C)(C)C    inactive
 6    O=C(N[C@H]1CN2CCC1CC2)c1ccc2c(c1)OCCO2    inactive
 7                           Nc1cccc2ccccc12    inactive
 8  CCCN(CCC)c1c([N+](=O)[O-])cc(C(C)C)cc1[N+](=O)[O-]    inactive
 9                               O=C(CCl)CCl      active
10  C[N+](C)(C)CCOC(=O)C(O)(c1ccccc1)c1ccccc1    inactive
11  C[C@H]1[C@@H]2Cc3ccc(O)cc3[C@@]1(C)CCN2C    inactive

* * *

target: Voltage-gated inwardly rectifying potassium channel KCNH2 (Homo sapiens); test: Human Ether-a-go-go-Related Gene (hERG) channel small molecule antagonists: fluorescence cell-based qHTS assay (AID 1671200); settings: hERG-U2OS cells, FluxOR thallium flux fluorescence; series mostly up to 76.8 µM; further: nearly all actives have a fitted effect of over 50% in size
Results filed as inconclusive are left out. The source made the active and inactive calls. The call rests on the fitted dose curve; in most records, active means well fitted inhibition curve with a large enough effect in the repeat runs; inconclusive means weak or mixed curves; inactive means flat fitted curve, though single readings scatter.
Outcome codes: label 1 (active), label 0 (inactive)

                                    compound  labelclass
 0  C#CC(O)(C=CCl)CC (configuration not stated)     label 0
 1  CCCSP(=S)(OCC)Oc1ccc(SC)cc1 (configuration not stated)     label 0
 2                        Clc1ccc(Cl)c(Cl)c1     label 0
 3  CN1C[C@H](C(=O)N[C@]2(C)O[C@@]3(O)[C@@H]4CCCN4C(=O)[C@H](Cc4ccccc4)N3C2=O)C=C2c3cccc4[nH]cc(c34)C[C@H]21     label 1
 4  C=CCN1C[C@H](C)N([C@H](c2ccc(C(=O)N(CC)CC)cc2)c2cccc(OC)c2)C[C@H]1C     label 1
 5  CCOP(=S)(OCC)Oc1ccc(S(C)=O)cc1 (configuration not stated)     label 0
 6                CC(C)c1ccc(NC(=O)N(C)C)cc1     label 0
 7                     O=C(Cl)OCCOCCOC(=O)Cl     label 0
 8  O=C([O-])c1ccccn1.O=C([O-])c1ccccn1.O=C([O-])c1ccccn1.[Cr+3]     label 0
 9                               CCc1ccccc1N     label 0
10  COP(=O)(OC)OC(Br)C(Cl)(Cl)Br (configuration not stated)     label 0
11  CC(Cc1ccccc1)NCc1ccccc1Cl (configuration not stated)     label 0
